# Tested on: CD2F1 mice, L1210 leukemia ip, survival T/C
# EXPERIMENT_DESCRIPTION: NCI In Vivo Anticancer Drug Screen. Data for tumor model L1210 Leukemia (intraperitoneal) in CD2F1 (CDF1) mice
# SETTINGS: endpoint: mean survival time; dose: 25.0 mg/kg/injection; schedule: Q01DX009 (ip); vehicle: saline with Tween-80; higher = longer survival
Toxic doses and inconclusive results are not listed.
Attribute: T/C

Solved cases below.
[
  {
    "MOLECULE": "C[N+](C)(C)CCCCC[N+](C)(C)C",
    "RESULT": "100 % of control"
  },
  {
    "MOLECULE": "CN(C)CCC(=O)c1cccc2ccccc12",
    "RESULT": "98 % of control"
  },
  {
    "MOLECULE": "CN(C)CCCN1c2ccc(O)cc2Sc2ccc(Cl)cc21",
    "RESULT": "90 % of control"
  },
  {
    "MOLECULE": "C/C(=N/NC(=O)CC#N)c1ccccc1",
    "RESULT": "98 % of control"
  },
  {
    "MOLECULE": "Cc1cccc(C)c1NC(=S)NNC(=O)c1ccncc1",
    "RESULT": "101 % of control"
  },
  {
    "MOLECULE": "CCOC(=O)c1c2c3c(c(Br)ccc3n(C)c1=O)C(=O)c1ccccc1-2",
    "RESULT": "96 % of control"
  },
  {
    "MOLECULE": "C[n+]1ccccc1CCC(=O)Nc1ccccc1",
    "RESULT": "103 % of control"
  },
  {
    "MOLECULE": "NC(CO)C(O)c1ccc(N=Nc2ccc(O)cc2)cc1 (stereo not given)",
    "RESULT": "100 % of control"
  },
  {
    "MOLECULE": "Cc1cc(N(C)C)ccc1N=Nc1cc[n+]([O-])c(C)c1",
    "RESULT": "103 % of control"
  },
  {
    "MOLECULE": "CCCCCOC(CN)C(Cl)(Cl)Cl (stereo not given)",
    "RESULT": "96 % of control"
  }
]

Reading of T/C for `Clc1cc(CBr)c(CBr)cc1Cl` with CD2F1 mice, L1210 leukemia ip, survival T/C: 97 % of control

The molecule CC(C)(C)OC(=O)NC(CCC(=O)OCc1ccccc1)C(=O)O (stereo not given) (tested in a mixture with another compound) , tested on CD2F1 mice, L1210 leukemia ip, survival T/C, showed T/C of 91 % of control

The value of T/C recorded for `O=C(NC1CCCCC1)OCc1c(COC(=O)NC2CCCCC2)c(-c2ccc(Cl)c(Cl)c2)n2c1CCC2` when tested on CD2F1 mice, L1210 leukemia ip, survival T/C reads 112 % of control

Log: CD2F1 mice, L1210 leukemia ip, survival T/C, molecule `C=CCNC(=O)C[n+]1cccc(C(=O)Nc2ccc(Cl)cc2)c1` , T/C = 97 % of control

For `O=C1C(Br)=C(Br)C(=O)C1(Br)Br` on CD2F1 mice, L1210 leukemia ip, survival T/C, measured T/C was 92 % of control

Note to self: T/C of `CCOC(=O)N/N=C/C(Br)=C\c1ccccc1` with CD2F1 mice, L1210 leukemia ip, survival T/C was 92 % of control

Note to self: T/C of `NC(N)=NC1CCCC1` with CD2F1 mice, L1210 leukemia ip, survival T/C was 102 % of control

Response field T/C (CD2F1 mice, L1210 leukemia ip, survival T/C) for item `CCOC(C(=O)OC1CCN(C)CC1)(c1ccccc1)c1ccccc1` : 98 % of control

Entry `c1ccc2c(c1)[nH]c1ccncc12` , CD2F1 mice, L1210 leukemia ip, survival T/C data, T/C value: 98 % of control

Lab note: molecule `CNC(=O)Oc1coc(CCl)cc1=O` tested on CD2F1 mice, L1210 leukemia ip, survival T/C; recorded T/C was 98 % of control

Entry CCCN1COC(OCC)C(C)(C)C1 (stereo not given) : T/C on CD2F1 mice, L1210 leukemia ip, survival T/C = 100 % of control

// returns T/C for `CCCCCCCCCCCCCCCC(=O)N(CCCCN(CCCN(C)C)C(=O)CCCCCCCCCCCCCCC)CCCN(C)C` with CD2F1 mice, L1210 leukemia ip, survival T/C; value = 93 % of control

Param item: `CS(=O)(=O)OCCCOS(C)(=O)=O` ; param system: CD2F1 mice, L1210 leukemia ip, survival T/C; output T/C: 116 % of control

Record `O=C(O)CSc1nc2ccccc2s1` / CD2F1 mice, L1210 leukemia ip, survival T/C, T/C recorded as 96 % of control

CD2F1 mice, L1210 leukemia ip, survival T/C data for COC(=O)c1cc2cc3c(c(O)c2c(=O)o1)OC1(Cc2c(O)c4c(c(O)c2O1)C(=O)C(OC)CC4=O)CC3O (stereo not given) ; its T/C: 94 % of control
